Values were extracted from ChEMBL document CHEMBL1152636.

# Measured target: UniProtKB P11387
# Sequence (whole entry): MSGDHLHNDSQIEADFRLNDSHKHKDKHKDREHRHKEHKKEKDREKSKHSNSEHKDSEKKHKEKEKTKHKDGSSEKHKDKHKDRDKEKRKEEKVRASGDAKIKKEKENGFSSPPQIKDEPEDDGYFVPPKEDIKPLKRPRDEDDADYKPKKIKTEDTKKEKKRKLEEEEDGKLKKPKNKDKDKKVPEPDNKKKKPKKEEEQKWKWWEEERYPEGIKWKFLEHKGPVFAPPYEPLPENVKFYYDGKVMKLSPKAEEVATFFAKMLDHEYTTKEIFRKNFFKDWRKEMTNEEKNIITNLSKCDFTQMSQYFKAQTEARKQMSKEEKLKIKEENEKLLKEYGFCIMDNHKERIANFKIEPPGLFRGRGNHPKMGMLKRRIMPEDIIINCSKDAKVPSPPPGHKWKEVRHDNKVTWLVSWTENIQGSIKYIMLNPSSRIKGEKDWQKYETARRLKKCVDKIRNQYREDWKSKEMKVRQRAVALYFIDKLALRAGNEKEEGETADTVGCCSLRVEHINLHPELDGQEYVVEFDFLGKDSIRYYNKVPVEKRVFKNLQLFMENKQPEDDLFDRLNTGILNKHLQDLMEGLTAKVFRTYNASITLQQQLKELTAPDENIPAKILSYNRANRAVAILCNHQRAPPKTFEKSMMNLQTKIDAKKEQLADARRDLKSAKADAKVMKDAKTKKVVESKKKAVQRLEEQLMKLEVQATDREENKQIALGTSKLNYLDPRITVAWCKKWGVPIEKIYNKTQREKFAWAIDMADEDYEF
# Procedure summary: Inhibition of human DNA topoisomerase 1 assessed as induction of enzyme-dependent DNA cleavage relative to 1 uM camptothecin
Activity calls are given as the source filed them. No cut-off for these calls is given here.
Outcome measure: inhibition

Would you please look over these solved cases?
Smiles	Measured target	Reported measurement
NCCNCc1c2c(nc3ccccc13)-c1cc3ccccc3c(=O)n1C2	UniProtKB P11387	75%
NCCCCCNCc1c2c(nc3ccccc13)-c1cc3ccccc3c(=O)n1C2	UniProtKB P11387	25%
NCCCCCCCCCNCc1c2c(nc3ccccc13)-c1cc3ccccc3c(=O)n1C2	UniProtKB P11387	25%
NCCCNCc1c2c(nc3ccccc13)-c1cc3ccccc3c(=O)n1C2	UniProtKB P11387	50%
NCCCCCCCCCCCNCc1c2c(nc3ccccc13)-c1cc3ccccc3c(=O)n1C2	UniProtKB P11387	inactive

INPUT: Output measured inhibition for this item: NCCCCCCCCCCCCNCc1c2c(nc3ccccc13)-c1cc3ccccc3c(=O)n1C2
OUTPUT: inactive

INPUT: Output measured inhibition for this item: NCCCCCCCCNCc1c2c(nc3ccccc13)-c1cc3ccccc3c(=O)n1C2
OUTPUT: 25%

INPUT: Output measured inhibition for this item: NCCCCCCNCc1c2c(nc3ccccc13)-c1cc3ccccc3c(=O)n1C2
OUTPUT: 50%

INPUT: Output measured inhibition for this item: NCCCCCCCNCc1c2c(nc3ccccc13)-c1cc3ccccc3c(=O)n1C2
OUTPUT: 50%

INPUT: Output measured inhibition for this item: Cl.NCCCCCCCCCCNCc1c2c(nc3ccccc13)-c1cc3ccccc3c(=O)n1C2
OUTPUT: inactive

INPUT: Output measured inhibition for this item: NCCCCNCc1c2c(nc3ccccc13)-c1cc3ccccc3c(=O)n1C2
OUTPUT: 75%

* * *

log10 GI50 listing for selected compounds.
# System: MDA-MB-435
# Procedure summary: Cytotoxicity against human MDA-MB-435 cells
# Format: functional
Hey, these are logged values: log10 of GI50, µM being the unit before logging.

Would you please look over these solved cases?
Compound	Reported measurement
COc1cc2c3c(n(C)c(=O)c2cc1OC)-c1cc2c(cc1C3=O)OCO2	1.98
CC[C@@]1(O)C(=O)OCc2c1cc1n(c2=O)Cc2cc3ccccc3nc2-1 [CAMPTOTHECIN]	-1.40
NCCCCCCCCCCCCNCc1c2c(nc3ccccc13)-c1cc3ccccc3c(=O)n1C2	0.23
COc1cc2c3c(n(CCCNCCO)c(=O)c2cc1OC)-c1cc2c(cc1C3=O)OCO2 [LMP-744]	-0.10
NCCCCCCNCc1c2c(nc3ccccc13)-c1cc3ccccc3c(=O)n1C2	0.18
NCCCCCNCc1c2c(nc3ccccc13)-c1cc3ccccc3c(=O)n1C2	1.10

INPUT: Output measured log10 GI50 for this item: NCCCNCc1c2c(nc3ccccc13)-c1cc3ccccc3c(=O)n1C2
OUTPUT: 0.83

INPUT: Output measured log10 GI50 for this item: NCCCCCCCCNCc1c2c(nc3ccccc13)-c1cc3ccccc3c(=O)n1C2
OUTPUT: 0.49

INPUT: Output measured log10 GI50 for this item: NCCNCc1c2c(nc3ccccc13)-c1cc3ccccc3c(=O)n1C2
OUTPUT: 1.04

* * *

# Test system: DU-145
# Procedure summary: Cytotoxicity against human DU145 cells
# Format: functional
GI50 listing for selected compounds.
Form entry: value (nM) — number only.

Would you please look over these solved cases?
Smiles	Outcome measure	Readout units	Reported measurement
NCCCCCCNCc1c2c(nc3ccccc13)-c1cc3ccccc3c(=O)n1C2	GI50	nM	330
CC[C@@]1(O)C(=O)OCc2c1cc1n(c2=O)Cc2cc3ccccc3nc2-1	GI50	nM	10
NCCCCCCCCCCCCNCc1c2c(nc3ccccc13)-c1cc3ccccc3c(=O)n1C2	GI50	nM	2000
COc1cc2c3c(n(C)c(=O)c2cc1OC)-c1cc2c(cc1C3=O)OCO2	GI50	nM	37000
NCCCCCCCCNCc1c2c(nc3ccccc13)-c1cc3ccccc3c(=O)n1C2	GI50	nM	1100
NCCCNCc1c2c(nc3ccccc13)-c1cc3ccccc3c(=O)n1C2	GI50	nM	1100
NCCCCCNCc1c2c(nc3ccccc13)-c1cc3ccccc3c(=O)n1C2	GI50	nM	1100

Now examine the next entry.
INPUT: Output measured GI50 for this item: NCCNCc1c2c(nc3ccccc13)-c1cc3ccccc3c(=O)n1C2
OUTPUT: 1400

* * *

# Test system: OVCAR-3
# Procedure summary: Cytotoxicity against human OVCAR-3 cells
# Format: functional
Returns: string. Value is label 1 if measured GI50 is below 2000 nM, and label 0 if it is greater than or equal to it.

INPUT: Item COc1cc2c3c(n(CCCNCCO)c(=O)c2cc1OC)-c1cc2c(cc1C3=O)OCO2 [LMP-744] : GI50 beneath 2000 nM, strictly?
OUTPUT: label 1

* * *

# System: OVCAR-3
# Procedure summary: Cytotoxicity against human OVCAR-3 cells
# Format: functional
Outcome measure: GI50 (µM)
Form entry: value (µM) — number only.

Would you please look over these solved cases?
Smiles	GI50 [µM]
NCCCCCNCc1c2c(nc3ccccc13)-c1cc3ccccc3c(=O)n1C2	8.1
NCCCCCCCCNCc1c2c(nc3ccccc13)-c1cc3ccccc3c(=O)n1C2	2.5
NCCCNCc1c2c(nc3ccccc13)-c1cc3ccccc3c(=O)n1C2	1.4
NCCCCCCNCc1c2c(nc3ccccc13)-c1cc3ccccc3c(=O)n1C2	1.4

INPUT: Enter GI50 (test system OVCAR-3) for NCCNCc1c2c(nc3ccccc13)-c1cc3ccccc3c(=O)n1C2
OUTPUT: 1.7

INPUT: Enter GI50 (test system OVCAR-3) for NCCCCCCCCCCCCNCc1c2c(nc3ccccc13)-c1cc3ccccc3c(=O)n1C2
OUTPUT: 1.9
